Recorded below: GI50, system NCI-H460 lung.

Req: For `C=CC[PH+](c1ccccc1)c1ccccc1.C=CC[PH+](c1ccccc1)c1ccccc1.[Cl][Pt][Cl]` , write its GI50.
Resp: 12.8 µM

Req: Report GI50, nothing else, for this molecule: `OCCCCC#Cc1ccccc1C#Cc1cnccn1`
Resp: 27.4 µM

Req: Quick one: give measured GI50 for `CN1CCN(C(=S)SCN2C(=O)c3ccccc3S2(=O)=O)CC1`
Resp: 17.8 µM

Req: Specify reported GI50 for the molecule shown: COC1C(CO)OC(n2c3ccccc3c3c4c(c5c6ccccc6[nH]c5c32)C(=O)NC4=O)C(O)C1OC(=O)C(N)CCCCN (configuration not stated)
Resp: 3.64 µM

Req: Annotate the molecule `C[C@]12CC[C@@H]3c4ccc(O)cc4CC[C@H]3[C@@H]1CC[C@@H]2NS(=O)(=O)c1ccc(-c2ccccc2)cc1` with its measured GI50.
Resp: 3.05 µM

Req: Annotate the molecule `CCN(CC)CCOc1ccc(C2=C(c3ccccc3)CCc3cc(OC)ccc32)cc1` with its measured GI50.
Resp: 1.84 µM

Req: Please report the measured GI50 for COc1ccc(-n2nc(C)c3c2N(C)C2(C)C[C@@H]4C3(C)[C@@H]3CC4(C2)N(C)c2c(c(C)nn2-c2ccc(OC)cc2)[C@H]3C)cc1 (some centres not stated)
Resp: 3.69 µM

Req: Give me measured GI50, please, for this molecule: `CC(C)(C)c1ccc(S(=O)(=O)N[C@H]2CC[C@H]3[C@@H]4CCc5cc(O)ccc5[C@H]4CC[C@]23C)cc1`
Resp: 1.98 µM

Req: Given `C#Cc1cccc(Nc2ncnc3ccc(-c4cncc(NS(C)(=O)=O)c4)cc23)c1` , respond with its GI50.
Resp: 3.46 µM

Req: Give the reported value of GI50 for this record: `CCOc1cccnc1/C=N/NC(N)=S`
Resp: 3.48 µM

Req: Please report GI50 for the following molecule: `C=C(CC1(CC(=C)c2ccc(C(=O)O)cc2)C(=O)N(C)C(=O)N(C)C1=O)c1ccc(C(=O)O)cc1`
Resp: > 100 µM

Req: Assign GI50 to the following record: `COc1ccc(N=C2NN=C(c3c[nH]c4ccccc34)CS2)cc1OC`
Resp: 4.11 µM

###

# System: K-562 leukemia
# protocol: NCI tumour cell line growth inhibition, 48 h
Give TGI for every item shown.

Req: Tell me TGI reported for `CCOc1cc(C=O)ccc1O`
Resp: > 100 µM

Req: Provide measured TGI value, entry: `COc1ccc([C@@]23CCC(=O)C[C@@H]2N(C)CC3)cc1OC`
Resp: > 100 µM

Req: Quote TGI reported for CC1(C)CC2(C)OC2C2(C1)N=NC(=Nc1ccccc1)O2 (centres undefined) please.
Resp: 12.5 µM

Req: Provide one value: measured TGI of COc1cc2c(cc1OC)C1Cc3ccccc3CN1CCC2 (centres undefined)
Resp: > 100 µM

Req: Return value of TGI for input `O=c1[nH]c(-c2ccccn2)nc2sc3c(c12)CCCCCC3` , no commentary.
Resp: > 100 µM

Req: For the compound CCOC(=O)Cc1csc(NC(=O)C(OC(=O)c2ccc(N)cc2)c2ccccc2)n1 (centres undefined) , give its measured TGI value.
Resp: > 100 µM

Req: For the compound Cc1cc2c(cc1Cl)SC1=NN(C)C(c3ccccc3O)N1S2(=O)=O (centres undefined) , give its reported TGI.
Resp: > 100 µM

Req: Specify TGI for `CN(C)c1ccc(Sc2ccc3nc(N)nc(N)c3c2)cc1` and stop.
Resp: 4.55 µM

Req: Give me measured TGI, please, for this compound: CN(Cc1nc2c(N)nc(N)nc2nc1N)c1ccc(C(=O)NC(CCC(=O)O)C(=O)O)cc1 (centres undefined)
Resp: > 100 µM

###

# System: 786-0 renal
# protocol: NCI tumour cell line growth inhibition, 48 h
For each entry below, report its GI50 value.

Req: Specify GI50 for `N#Cc1ccc(N2Cc3cc(Cl)ccc3OC3=C2C(=O)N(Cc2ccccc2)C3=O)cc1` and stop.
Resp: 1.92 µM

Req: Give recorded GI50. `Cn1c(COC(=O)NCCN2CCOCC2)nc2c(N3CCOCC3)nc(-c3ccccc3)nc21`
Resp: 0.843 µM

Req: Give the reported value of GI50 for this record: `O=C(CN=Cc1cccs1)CSC(c1ccccc1)c1ccccc1`
Resp: 34 µM

Req: Output measured GI50 for this item: `Cc1csc(Nc2nc(-c3cccc(Cl)c3)nc(C(Cl)(Cl)Cl)n2)n1`
Resp: 11 µM

Req: Give the measured GI50 for `Nc1ncnc2c1ncn2Cc1ccc(C23CC4CC(CC(C4)C2)C3)c(O)c1`
Resp: 25.6 µM

Req: Answer with the recorded GI50 for the molecule listed here: `O=c1c2cc(F)ccc2sc2c(NCCCN3CCCC3)nc3ccccc3c12`
Resp: 1.61 µM

Req: Output measured GI50 for this item: `CCNC(=O)Oc1ccc(/C(=C(\C)c2ccc(Cl)cc2)c2ccc(OCCN3CCCCC3)cc2)cc1`
Resp: 1.79 µM

###

# Test system: MDA-MB-435
# protocol: NCI tumour cell line growth inhibition, 48 h
endpoint_name: TGI

Req: Give the reported TGI for this compound. `OCCCCC#Cc1ccccc1C#Cc1cnccn1`
Resp: > 100 µM

Req: Kindly indicate its recorded TGI. Item: `COc1ncnc2c(-c3ccco3)cn(COCc3ccccc3)c12`
Resp: > 50 µM

Req: Entry `CNC(=O)OCC1=C(COC(=O)NC)CN(c2ccccc2)C1` needs its TGI filled in; supply it.
Resp: > 100 µM

###

# Tested on: PC-3 prostate
# protocol: NCI tumour cell line growth inhibition, 48 h
Peptide text beside a SMILES is read from it. * marks the point of attachment. Boc = CC(C)(C)OC(=O)*
For each record, write down the corresponding TGI.

Req: Provide TGI, system PC-3 prostate, entry CCCCCCCCCCCCCCCC(=O)OCC1OC(n2ccc(N)nc2=O)C(O)C1O (configuration not stated)
Resp: > 100 µM

Req: Answer with TGI of `O=C(Cc1nc2ccc([N+](=O)[O-])cc2[nH]c1=O)C(=O)Nc1cc(Cl)c(Cl)cc1Cl` measured for PC-3 prostate.
Resp: > 100 µM

Req: State the measured TGI (PC-3 prostate) of CSCCC(NC(=O)C(CC(C)C)NC(=O)CNC(=O)OC(C)(C)C)C(=O)N(C)C (stereo not drawn) (Boc-Gly-Leu-Met-NMe2; configuration not given here)
Resp: > 100 µM

Req: // fetch TGI; item: CCOC(=O)Cc1nc2c(=O)[nH]cnc2n1C1OC(COC(C)=O)C(OC(C)=O)C1OC(C)=O (configuration not stated) ; system: PC-3 prostate
Resp: > 100 µM

Req: Check PC-3 prostate data and give TGI for COc1ccc(N(Cc2cc(OC)c(OC)c(OC)c2)C2OC(=O)c3ccccc32)cc1 (configuration not stated) .
Resp: > 100 µM

Req: State measured TGI of the molecule `CC(C)n1nc(C#Cc2cccc(NC(=O)c3cccc(C(F)(F)F)c3)c2)c2c(N)ncnc21` with PC-3 prostate.
Resp: > 100 µM

Req: Jot down TGI (PC-3 prostate) of `COc1ccc([C@@]23CCC(=O)C[C@@H]2N(C)CC3)cc1OC` .
Resp: > 100 µM

###

Assign TGI to each entry below.
# System: UO-31 renal
# protocol: NCI tumour cell line growth inhibition, 48 h

Req: Provide measured TGI value, entry: COC(=O)C(=O)C(C(=O)C(=O)Nc1ccccc1C(N)=O)c1nc2ccc(C(=O)c3ccccc3)cc2[nH]c1=O (stereo not drawn)
Resp: > 100 µM

Req: // Input: COC(=O)C(Cc1ccccc1)NC(=O)CCCNC(=O)OCc1ccccc1 (stereo not drawn) . Output its TGI only.
Resp: > 100 µM

Req: Give TGI for `Cc1ccc(S(=O)(=O)NC(=O)NS(=O)(=O)O)cc1`
Resp: > 100 µM

###

# System: MCF7 breast
# protocol: NCI tumour cell line growth inhibition, 48 h
Where a SMILES comes first, the peptide text is derived from it. [ ]: non-standard residue; d: D form. The star is where a group is joined. Phe(4-NO2) = N[CH](Cc1ccc([N+](=O)[O-])cc1)C(=O)O; Boc = CC(C)(C)OC(=O)*; OtBu = CC(C)(C)O*
For each entry below, report its TGI value.

Req: Please report the measured TGI for `CC(=O)c1nccc2c1c(C)nc1ccccc12`
Resp: > 100 µM

Req: Give the reported value of TGI for this record: `O=C(NCCCCl)c1c(O)c2ccccc2[nH]c1=O`
Resp: > 100 µM

Req: Consider the molecule `O=C1O/C(=C\c2ccc(O)cc2)C(c2ccc(O)c(Cl)c2)=C1Br` . State its measured TGI.
Resp: 37.1 µM

Req: Retrieve TGI measured for `COc1ccccc1OC/C(N=Cc1ccncc1)=N/NC(=O)c1ccncc1` and print it.
Resp: > 100 µM

Req: Answer with reported TGI of COc1cc(C2S/C(=C/c3ccccc3)C(=O)N2c2ccc(Cl)cc2)cc(OC)c1OC (stereo not drawn)
Resp: > 100 µM

Req: Specify measured TGI for `CCNC(=O)Oc1ccc(/C(=C(\C)c2ccc(Cl)cc2)c2ccc(OCCN3CCCCC3)cc2)cc1` .
Resp: 8.06 µM

Req: Indicate the recorded TGI value for this molecule: `Cc1csc(Nc2nc(-c3cccc(Cl)c3)nc(C(Cl)(Cl)Cl)n2)n1`
Resp: > 33.3 µM

Req: Give the reported value of TGI for this record: `COc1cc([C@@H]2c3cc4c(cc3[C@@H](Nc3ccc(Cl)cc3C(=O)c3ccccc3Cl)[C@H]3COC(=O)[C@H]23)OCO4)cc(OC)c1OC`
Resp: > 100 µM

Req: Read off the recorded TGI for O=C(NO)C(O)C(O)C(O)C(O)CO (stereo not drawn)
Resp: > 100 µM

Req: Assign TGI to the following record: `C=CC[PH+](c1ccccc1)c1ccccc1.C=CC[PH+](c1ccccc1)c1ccccc1.[Cl][Pt][Cl]`
Resp: 24.4 µM

Req: Read off the recorded TGI for `BrCC[P+](c1ccccc1)(c1ccccc1)c1ccccc1`
Resp: 30.5 µM

Req: Look up TGI of `O=C(O)CCCc1nc2c(n1-c1ccccc1)C(=O)c1ccccc1C2=O` and report it.
Resp: > 100 µM

Req: Respond only with TGI recorded for `Cc1cnc2[nH]c(-c3ccccc3)cc(=O)c2c1`
Resp: > 100 µM

Req: Specify reported TGI for the molecule shown: `Cc1cccc(N2CCN(S(=O)(=O)c3ccc(Cl)cc3)C2=N)c1C`
Resp: > 100 µM

Req: Please look at this molecule and report its TGI: `CN(C)CCn1c(=O)c2ccc(NCCNCCO)c3c(=O)c4cc(O)ccc4n(c1=O)c23`
Resp: 6.23 µM

Req: State its TGI for this molecule: `O=C(Cc1nc2ccc([N+](=O)[O-])cc2[nH]c1=O)C(=O)Nc1cc(Cl)c(Cl)cc1Cl`
Resp: > 100 µM

Req: Retrieve TGI measured for CCOC(=O)C1=C(c2ccccc2)N(Cc2ccccc2)C2(O)C=CC(=O)C3C(=O)N(c4ccccc4)C(=O)C132 (stereo not drawn) and print it.
Resp: 3.08 µM

Req: Look up TGI of COC(=O)C(Cc1ccc([N+](=O)[O-])cc1)NC(=O)C(CC(=O)OC(C)(C)C)NC(=O)OC(C)(C)C (stereo not drawn) (Boc-Asp(OtBu)-[Phe(4-NO2)]-OMe; configuration not given here) and report it.
Resp: > 100 µM
